B1: TRIM63 (parent)
chain: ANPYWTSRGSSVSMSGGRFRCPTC

- Variants of: B1
- assay_details: protein stability index of a GFP-peptide fusion (GPS, HEK-293T) (PSI 1-6); higher = more stable;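 note: lentivirally expressed fusions sorted by FACS into six bins by GFP to DsRed ratio, PSI derived from sequencing read proportions per bin multiplied by bin number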
- condition_set: c terminus: a fixed tail appended
// false (0) strictly below 2 in protein stability index; true (1) otherwise

construct_sequence: ANPYWTSRGSSKSMSGGRFRCPTC [V12K]
assigned_label: true (1)

construct_sequence: ANPYWTSRGSMVSMSGGRFRCPTC [S11M]
assigned_label: false (0)

construct_sequence: ANTYWTSRGSSVSMSGGRFRCPTC [P3T]
assigned_label: true (1)

construct_sequence: ANPYWTSRGSSVSMSGGRRRCPTC [F19R]
assigned_label: true (1)

construct_sequence: ANPYWTSRGSSVSMSNGRFRCPTC [G16N]
assigned_label: false (0)

construct_sequence: ANPYWTSRGSSVSMSGGRFNCPTC [R20N]
assigned_label: false (0)

construct_sequence: ANPYWTSRYSSVSMSGGRFRCPTC [G9Y]
assigned_label: true (1)

construct_sequence: ANPYWTNRGSSVSMSGGRFRCPTC [S7N]
assigned_label: false (0)

construct_sequence: ANPYWTSRGSSVSMSGGRERCPTC [F19E]
assigned_label: true (1)

construct_sequence: ANPYWTSRGSSVSMSGGRFRKPTC [C21K]
assigned_label: true (1)

construct_sequence: ANPYWTSRGSDVSMSGGRFRCPTC [S11D]
assigned_label: true (1)

construct_sequence: ANPYWTSRGSSVSMSGGRFRCCTC [P22C]
assigned_label: false (0)

construct_sequence: ANNYWTSRGSSVSMSGGRFRCPTC [P3N]
assigned_label: false (0)

construct_sequence: PNPYWTSRGSSVSMSGGRFRCPTC [A1P]
assigned_label: false (0)

construct_sequence: ANPYWTSRGSSVSMSGGRFRCPRC [T23R]
assigned_label: true (1)

construct_sequence: ANPKWTSRGSSVSMSGGRFRCPTC [Y4K]
assigned_label: true (1)

construct_sequence: ANPYWTSRGSSVSMSKGRFRCPTC [G16K]
assigned_label: true (1)

construct_sequence: ANPYWTSRGSQVSMSGGRFRCPTC [S11Q]
assigned_label: true (1)

construct_sequence: ANPYWTSRGSSVSMSRGRFRCPTC [G16R]
assigned_label: false (0)

construct_sequence: ANPYWTSRGSSVSMSGGRFRCPEC [T23E]
assigned_label: false (0)

construct_sequence: ANPYWPSRGSSVSMSGGRFRCPTC [T6P]
assigned_label: false (0)

Reference source for all entries: the supplement of paper PMC10567573
